Hello, the source for this data is PubChem BioAssay (NCI), in case you need it.

The molecules listed here are annotated with their growth.
- Tested on: M14 melanoma
- Experiment Notes: NCI-60 one-dose screen, 48 h (100 = growth as untreated, 0 = no growth, -100 = all killed)
- Condition Notes: 10 µM unless noted
This is part of a sample that, as a whole, favours compounds with a hit. Of some 83,000 tested, about 20% had one in any assay.
Value expressed in %; do not type the unit.

>>> recorded_value("C[C@H](Nc1ncnc2ccc(-c3cnc(Cl)c(NS(C)(=O)=O)c3)cc12)c1ccccc1")
-13.5
>>> recorded_value("O=C(Nc1ccc(N=Cc2c(O)[nH]c3ccccc23)cc1)Nc1ccc(S(=O)(=O)Nc2ncccn2)cc1")
104
>>> recorded_value("CN1CCN(c2ccc(Nc3nc(NCCCNS(=O)(=O)c4ccc(C(F)(F)F)cc4)c4sccc4n3)cc2)CC1")
-80.5
>>> recorded_value("CCN1CCN(c2ccc(NC(=O)Nc3ccc4c(ccn4-c4ccnc(C(=O)NC)c4)c3)cc2C(F)(F)F)CC1")
17.9
>>> recorded_value("CN1CC[C@@H]2[C@@]3(C)CC[C@H](O)C(C)(C)[C@@H]3CC[C@@]2(C)[C@]2(C)CC[C@@]3(CO)CCC(C)(C)C[C@@H]3C12 (stereo partly drawn)")
58.6

Problem: Hello, I am looking for reported growth with M14 melanoma for Cc1ccc2c(n1)C(=O)C(Cl)=C(Nc1cc(C(F)(F)F)cc(C(F)(F)F)c1)C2=O . Could you help?
Solution: 89.9

Problem: Repeat with Cn1c(SCC(=O)c2ccco2)nc2ccccc2c1=O
Solution: 97.2

Problem: Repeat with C[C@H]1OCC2(CCN(c3cnc(C(=O)Nc4cc(F)cc5cccnc45)cn3)CC2)[C@H]1N
Solution: 71.2
